# assayed_target: bovine thrombin (Bos taurus, UniProt P00735)
# Construct: a 0.2 unit/ml bovine thrombin solution
# experiment_description: Antithrombin activity: inhibition of fibrin formation (fibrinogen)
# Type: biochemical
# condition_label: Table 2; bovine fibrinogen, pH 7.4, 37° C.; read-out: Thrombin Fibrinogen I50 (concentration doubling coagulation time)
Counter-ions that a name gives are not always drawn.
readout_kind: IC50

CCOC(=O)C1CCN(C(=O)C(Cc2cccc(Oc3ccccc3)c2)NC(=O)c2ccc(NC(=N)N)cc2)CC1 (racemic) ... > 50 µM
CC(=O)c1ccc(NC(=O)C(Cc2cccc(Oc3ccccc3)c2)NC(=O)[C@H]2CC[C@H](CN)CC2)cc1 (mixture of isomers) [Compound 2, hydrochloride] ... > 100 µM
NC[C@H]1CC[C@H](C(=O)NC(Cc2cccc(Oc3ccccc3)c2)C(=O)NCC(=O)c2ccccc2)CC1 (some centres unmarked) ... > 100 µM
COCCCNC(=O)C(Cc1cccc(C(F)(F)F)c1)NC(=O)[C@H]1CC[C@H](CN)CC1 (some centres unmarked) ... > 1000 µM
NC[C@H]1CC[C@H](C(=O)NC(Cc2cccc(Oc3ccccc3)c2)C(=O)Nc2nnn[nH]2)CC1 (some centres unmarked) ... > 100 µM
NC[C@H]1CC[C@H](C(=O)NC(Cc2cccc(Oc3ccccc3)c2)C(=O)N2CCC(C(=O)O)CC2)CC1 (some centres unmarked) ... > 1000 µM
CCOC(=O)C1CCCCN1C(=O)C(Cc1cccc(Oc2ccc(Br)cn2)c1)NC(=O)[C@H]1CC[C@H](CN)CC1 (some centres unmarked) ... > 1000 µM
NC[C@H]1CC[C@H](C(=O)NC(Cc2cccc(OCc3ccccc3)c2)C(=O)Nc2cccnc2)CC1 (mixture of isomers) [Compound 22, dihydrochloride] ... > 500 µM

Let me check: COC(=O)[C@H]1CCCN1C(=O)C(Cc1cccc(Oc2ccccc2)c1)NC(=O)[C@H]1CC[C@H](CN)CC1 (some centres unmarked) , system bovine thrombin (Bos taurus, UniProt P00735), measured IC50 is > 1000 µM

Let me check: NC[C@H]1CC[C@H](C(=O)NC(Cc2cccc(Oc3ccccc3)c2)C(=O)Nc2ccncc2)CC1 (mixture of isomers) [Compound 8, dihydrochloride] , system bovine thrombin (Bos taurus, UniProt P00735), measured IC50 is > 400 µM

====

# assayed_target: human plasmin (Homo sapiens, UniProt P00747)
# Sequence (P00747 581-810 limits assumed): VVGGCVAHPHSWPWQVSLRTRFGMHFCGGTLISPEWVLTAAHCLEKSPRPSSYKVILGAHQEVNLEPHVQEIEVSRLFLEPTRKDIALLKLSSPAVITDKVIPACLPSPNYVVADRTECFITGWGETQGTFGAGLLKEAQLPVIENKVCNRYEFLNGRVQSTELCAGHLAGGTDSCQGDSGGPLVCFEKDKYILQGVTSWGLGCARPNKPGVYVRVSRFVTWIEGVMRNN
# Sequence (P00747 97-580 limits assumed): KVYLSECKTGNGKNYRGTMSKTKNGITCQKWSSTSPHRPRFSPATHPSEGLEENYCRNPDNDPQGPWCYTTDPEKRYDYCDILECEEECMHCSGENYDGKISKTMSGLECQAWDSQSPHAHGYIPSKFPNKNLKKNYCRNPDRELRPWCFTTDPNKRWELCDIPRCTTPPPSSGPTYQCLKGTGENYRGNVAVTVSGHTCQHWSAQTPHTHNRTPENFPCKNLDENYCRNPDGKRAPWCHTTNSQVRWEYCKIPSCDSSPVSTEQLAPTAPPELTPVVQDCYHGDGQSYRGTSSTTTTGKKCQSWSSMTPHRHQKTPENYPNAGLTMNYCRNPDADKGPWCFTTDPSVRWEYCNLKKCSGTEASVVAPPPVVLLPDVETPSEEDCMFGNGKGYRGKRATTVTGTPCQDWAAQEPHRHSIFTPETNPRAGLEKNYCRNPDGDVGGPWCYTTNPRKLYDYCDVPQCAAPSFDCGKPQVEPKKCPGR
# experiment_description: Antiplasmin activity: inhibition of fibrin decomposition
# Assay type: biochemical
# condition_label: Table 2, pH 7.4, 37° C., read-out: Plasmin Fibrin I50 (concentration doubling fibrin dissolution time)
Counter-ions that a name gives are not always drawn.
readout_kind: IC50 (µM)

NC[C@H]1CC[C@H](C(=O)NC(Cc2cccc(C(=O)c3ccccc3)c2)C(=O)N2CCOCC2)CC1 (stereo partly drawn) [Compound 24] ... 700
N=C(N)c1ccc(NC(=O)C(Cc2cccc(Oc3ccccc3)c2)NC(=O)[C@H]2CC[C@H](CN)CC2)cc1 (mixture of isomers) [Compound 5, dihydrochloride] ... 12

[I] COCCCNC(=O)C(Cc1cccc(C(=O)c2ccccc2)c1)NC(=O)[C@H]1CC[C@H](CN)CC1 (stereo partly drawn) [Compound 23]
[II] NC[C@H]1CC[C@H](C(=O)NC(Cc2cccc(Oc3ccccc3)c2)C(=O)Nc2ccncc2)CC1 (mixture of isomers) [Compound 8, dihydrochloride]
Ask: Given the listed records, identify the one among I and II with higher IC50. Lab log: write the label of the selected item as the result.
Reply: I
